// values below are reported Chlorophyll (mg/g FW) a + b
Tested on: Raphanus sativus L. cv. Cherry Belle cotyledons
Test: Radish cotyledon bioassay (expansion growth and chlorophyll accumulation)
Format: in vivo
Details: Experiment 2; 20 mg/l; 48 h
Experimental: Radish cotyledon bioassay: This bioassay using Raphanus sativus L. cv. […] Seeds of Raphanus sativus L. cv. […] The smaller of the two cotyledons was excised, the fresh weight determined, and 10 cotyledons placed adaxial side down on filter paper in Petri dishes containing 10 ml of KPO4 buffer (2 mM, pH 6.0) and the compounds to be tested at 20 mg/l. […]
testReadout: Chlorophyll (mg/g FW) a + b

>>> reportedmeasurement("CCCCCCCCCCCCCC(=O)NCCO")
"1.90 mg/g FW"
>>> reportedmeasurement("CCCCCCCC/C=C\\CCCCCCCC(=O)NCCO")
"1.99 mg/g FW"
>>> reportedmeasurement("CCCCCCCCCC(=O)NCCO")
"1.41 mg/g FW"
>>> reportedmeasurement("CCCCCC(=O)NCCO")
"1.73 mg/g FW"
>>> reportedmeasurement("CCCCC(CC)C(=O)NCCO (stereo not drawn)")
"1.63 mg/g FW"
>>> reportedmeasurement("CCCCCCCCCCCC(=O)NCCO")
"1.79 mg/g FW"
>>> reportedmeasurement("CCCCCCCCCCCCCCCC(=O)NCCO")
"1.44 mg/g FW"
>>> reportedmeasurement("CCCCCCCC(=O)NCCO")
"1.75 mg/g FW"
>>> reportedmeasurement("O=C(NCCO)c1ccccc1")
"1.77 mg/g FW"
>>> reportedmeasurement("NC1(C(=O)O)CC1 [ACC, 1-aminocyclopropane-1-carboxylic acid, reference compound]")
"1.42 mg/g FW"
>>> reportedmeasurement("CCCC(=O)NCCO")
"2.00 mg/g FW"
>>> reportedmeasurement("CCCCCCCCCCCCCCCCCC(=O)NCCO")
"1.85 mg/g FW"
>>> reportedmeasurement("O=CNCCO")
"1.62 mg/g FW"
>>> reportedmeasurement("c1coc(CNc2ncnc3[nH]cnc23)c1 [Kinetin, kinetin, reference compound]")
"0.81 mg/g FW"
>>> reportedmeasurement("CC(=O)NCCO")
"1.94 mg/g FW"
